# Tested On: native Aβ aggregates in human AD brain tissue sections (Homo sapiens, UniProt P05067)
# Construct: native Aβ aggregates in human AD brain tissue samples; from tissue; host or cells: human AD brain tissue sections
# Sequence (P05067 672-713 limits assumed): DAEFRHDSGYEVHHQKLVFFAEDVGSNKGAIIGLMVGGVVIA
# Assay Notes: Aβ in vitro displacement assay (selectivity counterscreen, [3H]Example 3 autoradiography)
# Assay type: binding
# Test Parameters: 1 μM compound; 3 nM [3H]Example 3; human AD brain sections; read-out: sel. counterscreen PCT_INHIB AD @ 1 μM (% displacement of [3H]Example 3)
Rule: inhibition at 1 µM of 90% or more gives class 1; anything lower gives class 0.

// query Decide: inhibition at 1 µM of COc1ccc(C(=O)Nc2ccc(N3CCN(c4ccc(C)cc4)CC3)cc2)cc1 >= 90%?
// result class 1

// query Has O=C(Nc1ccc(N2CCN(c3ccccn3)CC2)cc1)c1ccccc1F a recorded inhibition at 1 µM greater than or equal to 90%?
// result class 1

// query For this compound, is measured inhibition at 1 µM 90% or higher? COc1ccc(C(=O)Nc2ccc(N3CCN(c4ccncn4)CC3)cc2)cc1
// result class 1

// query Item Cc1ccc(C(=O)Nc2cnc(N3CCN(c4ccccn4)CC3)nc2)nc1 with inhibition at 1 µM of 90% or above?
// result class 1

// query Does the reported inhibition at 1 µM for COc1ccc(C(=O)Nc2cnc(N3CCN(c4ccccn4)CC3)nc2)cc1 fall at or above the 90% mark?
// result class 1

// query hey, is inhibition at 1 µM for this one >= 90%? COc1ccc(C(=O)Nc2ccc(N3CCN(c4ccc(C#N)cn4)CC3)cc2)cc1F
// result class 1

// query Assess whether reported inhibition at 1 µM for O=C(Nc1ccc(N2CCN(c3ccccn3)CC2)cc1)c1ccc(OCF)cc1 sits at 90% or higher.
// result class 1

// query I'd appreciate it if you could say whether COc1ccc(C(=O)Nc2ccc(N3CCN(c4ccccn4)CC3)cc2)c(C)c1 has inhibition at 1 µM at least equal to 90%.
// result class 0

// query Confirm if inhibition at 1 µM reported for the compound COc1ccc(C(=O)Nc2ccc(N3CCN(c4cc(OC)ccn4)CC3)cc2)cc1 is 90% or above.
// result class 1

// query Reported inhibition at 1 µM at or above 90%? COc1cccc(C(=O)Nc2ccc(N3CCN(c4ccc(C#N)cn4)CC3)cc2)n1
// result class 0

// query Test whether the compound N#Cc1ccc(N2CCN(c3ccc(NC(=O)c4ccc(OCCOCCOCCF)cc4)cc3)CC2)cc1 records inhibition at 1 µM of 90% or higher.
// result class 1

// query Please indicate if the recorded inhibition at 1 µM for O=C(Nc1ccc(N2CCN(c3cccnc3)CC2)cc1)c1ccc(N2CCOCC2)cc1 meets or exceeds 90%.
// result class 0

// query Say whether Cc1cccc(N2CCN(c3ccc(NC(=O)c4ccc(N(C)C)cc4)cc3)CC2)n1 shows inhibition at 1 µM of 90% or more.
// result class 1

// query Determine whether this compound has inhibition at 1 µM no lower than 90%: COc1ccc(C(=O)Nc2ccc(N3CCN(c4ccnc(OC)c4)CC3)cc2)cc1
// result class 1

// query Assess whether reported inhibition at 1 µM for COc1ccc(C(=O)Nc2ccc(N3CCN(c4ccc(C#N)cn4)CC3)cc2)cc1C sits at 90% or higher.
// result class 0

// query Hi, just wondering whether COc1ccc(C(=O)Nc2ccc(N3CCN(c4cc(C#N)ccn4)CC3)cc2)cc1 shows inhibition at 1 µM of 90% or higher.
// result class 1

// query I'd appreciate it if you could say whether COc1ccc(C(=O)Nc2ccc(N3CCN(c4ccccn4)CC3)cc2)nc1 has inhibition at 1 µM at least equal to 90%.
// result class 1

// query Given the entry COc1ccc(C(=O)Nc2ccc(N3CCN(c4ccc(C#N)cc4F)CC3)cc2)cc1 , answer whether its inhibition at 1 µM meets or surpasses 90%.
// result class 1

// query In plain terms: is recorded inhibition at 1 µM at least 90% for COc1ccc(C(=O)Nc2cnc(N3CCN(c4ccccn4)CC3)nc2)c(F)c1 ?
// result class 1

// query Hi, just wondering whether O=C(Nc1ccc(N2CCN(c3cccnc3)CC2)cc1)c1ccc(OCF)cc1 shows inhibition at 1 µM of 90% or higher.
// result class 1

// query Check the entry COc1ccc(C(=O)Nc2ccc(N3CCN(c4ccc(F)cc4)CC3)cc2)cc1 : does inhibition at 1 µM equal or exceed 90%?
// result class 1

// query Is the recorded value of inhibition at 1 µM equal to or greater than 90% for this compound? COc1ccc(C(=O)Nc2ccc(N3CCN(c4ccc(OC)cc4)CC3)cc2)cc1
// result class 1
